pIC50: −log10 of the molar value.
Note to self: these compounds have pIC50 reported for human DGAT1 (Homo sapiens) in various publications.

Consider the following illustrative entries.
{"Compound": "Cc1ncc(C[C@H]2CC[C@H](c3ccc(C4=Nc5c(N)ncnc5OC4(C)C)cc3)CC2)s1", "pIC50": "7.00 to 8.00"}
{"Compound": "CC1(C)Oc2ncnc(N)c2N=C1c1ccc(C2CCC(c3cc(O)no3)CC2)cc1 (centres unmarked)", "pIC50": "7.00 to 8.00"}
{"Compound": "CC(=O)N1CCN(C[C@H]2CC[C@H](c3ccc(C4=Nc5c(N)ncnc5OC4(C)C)cc3)CC2)CC1", "pIC50": "7.00 to 8.00"}
{"Compound": "Cc1nc(C)c(-c2ccc(-c3c(F)cc(C4(C(=O)O)CC4)cc3F)cc2)nc1C(N)=O", "pIC50": 7.77}
{"Compound": "Cc1ncc(CC[C@H]2CC[C@H](c3ccc(C4=Nc5c(N)ncnc5OC4(C)C)cc3)CC2)[nH]1", "pIC50": "7.00 to 8.00"}

Reported pIC50, compound Nc1ncnc2c1NC(c1ccc(Cl)c(Cl)c1)CO2 (centres unmarked) : ____
< 7.00

And for `COc1ccc2nc(-c3ccc(N4CCC(OCC5(C(=O)O)CCC5)CC4)nc3)[nH]c2n1` ?
7.05

Entry to check: `O=C(Cc1ccsc1)Nc1ccc(C2CCN(C(=O)Nc3c(Cl)cccc3Cl)CC2)cc1`
7.35
